Reported IC50 values for the following molecules.
# Tested on: Vero
# ASSAY_INFO: Cytotoxicity against african green monkey Vero cells […] after 3 days
# Type: cell-based
# STATED_CONDITIONS: Chlorocebus sabaeus, 72 h

// solved cases for IC50 follow
MOLECULE	IC50
C[N+](C)(CCCN1c2ccccc2Sc2ccc(C(F)(F)F)cc21)Cc1ccc(F)cc1.[Cl-]	> 128 µM
C[N+](C)(CCCN1c2ccccc2Sc2ccc(C(F)(F)F)cc21)Cc1ccc(Cl)cc1.[Cl-]	> 128 µM
C[N+](C)(CCCN1c2ccccc2Sc2ccc(C(F)(F)F)cc21)Cc1ccc(Br)cc1.[Br-]	> 128 µM
FC(F)(F)c1ccc2c(c1)N(Cc1cn(Cc3ccc(Cl)cc3)nn1)c1ccccc1S2	> 128 µM
C[N+](C)(CCCN1c2ccccc2Sc2ccc(C(F)(F)F)cc21)Cc1ccc(I)cc1.[Br-]	92.7 µM

Note to self: IC50 recorded for CO[C@H]1/C=C/O[C@@]2(C)Oc3c(C)c(O)c4c(O)c(c(/C=N/N5CCN(C)CC5)c(O)c4c3C2=O)NC(=O)/C(C)=C\C=C\[C@H](C)[C@H](O)[C@@H](C)[C@@H](O)[C@@H](C)[C@H](OC(C)=O)[C@@H]1C [RIFAMPIN] was > 100 µM

Attribution: ChEMBL document CHEMBL2069188
